- measuredTarget: hGPR40 (Homo sapiens, UniProt O14842)
- Sequence (O14842 whole entry): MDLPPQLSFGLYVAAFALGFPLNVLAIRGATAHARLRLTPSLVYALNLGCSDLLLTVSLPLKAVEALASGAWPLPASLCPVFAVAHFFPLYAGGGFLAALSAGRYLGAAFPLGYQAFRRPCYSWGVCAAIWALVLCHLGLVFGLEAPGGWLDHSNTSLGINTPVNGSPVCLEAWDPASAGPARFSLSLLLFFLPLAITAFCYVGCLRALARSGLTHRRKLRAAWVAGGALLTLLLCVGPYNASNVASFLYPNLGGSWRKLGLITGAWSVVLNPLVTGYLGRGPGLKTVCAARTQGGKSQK
- procedureText: Calcium flux assay to detect GPR40 activation
- experimentalContext: CHO-K cells stably expressing hGPR40; Fluo-4 NW; read for 4 min at 5 s intervals
pEC50: −log10 of the molar value.
valueKind: pEC50

Example entries and their recorded answers appear below.
1) CO/N=C(\COc1ccc(COc2ccc(C3CC3C(=O)O)cc2)cc1)c1ccc(C#N)cc1 (single isomer, unassigned) [Compound 80] ... > 8.00
2) CO/N=C(\COc1ccc(COc2ccc(C(C#N)CC(=O)O)cc2)cc1)c1ccc2c(c1)CCC2 (stereo not shown) [Compound 103] ... 7.00 to 8.00
3) CO/N=C(\COc1ccc(COc2ccc(CCC(=O)O)c(OCC3CC3)c2)cc1)c1ccccc1 [Compound 58] ... < 7.00
4) CO/N=C(\COc1ccc(COc2ccc(C3CC3C(=O)O)cc2)cc1)c1ccc(C#N)cc1 (stereo not shown) [Compound 45] ... 7.00 to 8.00
5) CO/N=C(\COc1ccc(COc2ccc(/C(C#N)=C/C(=O)O)cc2)cc1)c1ccccc1 [Compound 76] ... 7.00 to 8.00

Query: pEC50 lookup needed for CO/N=C(\COc1ccc(COc2ccc(C3CC3C(=O)O)cc2)cc1)c1ccc(OC)cc1 (stereo not shown) [Compound 46] , thanks.
Result: 7.00 to 8.00

Query: Entry CO/N=C(\COc1ccc(COc2ccc3c(c2)OCC3CC(=O)O)cc1)c1ccccc1 (stereo not shown) [Compound 73] : reported pEC50 = ?
Result: 7.00 to 8.00

Query: Consider the compound shown here: CO/N=C(\COc1ccc(COc2ccc(CCC(=O)O)cc2)cc1)c1sc2c(c1C)C(C)(C)CCC2(C)C [Compound 106] What is its recorded pEC50?
Result: < 7.00

Query: What does the data say about its pEC50? Entry: CO/N=C(\COc1ccc(COc2ccc(/C=C/C(=O)O)c(OC)c2)cc1)c1ccccc1 [Compound 95]
Result: < 7.00

Query: What pEC50 value was documented for this compound, CO/N=C(/COc1ccc(COc2ccc(C(C#N)CC(=O)O)cc2)cc1)c1ccc(C#N)cc1 (racemic) [Compound 33] ?
Result: > 8.00

Query: Would you kindly share the measured pEC50 for CO/N=C(\COc1ccc(CNc2ccc(CCC(=O)O)cc2)cc1)c1ccccc1C [Compound 6] ?
Result: 7.00 to 8.00

Query: Any idea what its pEC50 is? The compound is CO/N=C(\COc1ccc(COc2ccc([C@H]3C[C@@H]3C(=O)O)cc2)cc1)c1ccc(C#N)cc1 [Compound 64]
Result: 7.00 to 8.00

Query: So what does the record say about pEC50 for CON=C(COCC1CCC(COc2ccc(CCC(=O)O)cc2)CC1)c1ccccc1 (stereo not shown) [Compound 113] ?
Result: < 7.00

Query: Which pEC50 is reported for this compound? CO/N=C(\COc1ccc(COc2ccc(CCC(=O)O)c(F)c2)cc1)c1ccc(OC)cc1 [Compound 40]
Result: > 8.00

Query: pEC50; subject: CO/N=C(\COc1ccc(COc2ccc(C(C#N)CC(=O)O)cc2)cc1)c1ccccc1 (single isomer, unassigned; (+)) [Compound 81]
Result: 7.00 to 8.00

Query: Value lookup for pEC50; key = CO/N=C(\COc1ccc(COc2cc(F)c(CCC(=O)O)cc2F)cc1)c1ccccc1 [Compound 86]
Result: < 7.00

Query: Could you share which pEC50 value was measured for CO/N=C(\COc1ccc(COc2ccc(/C(CC(=O)O)=N\Oc3ccccc3)cc2)cc1)c1ccccc1 [Compound 123] ?
Result: < 7.00
